Recorded pIC50 values for a group of compounds are listed next.
Target: Delta-type opioid receptor (Mus musculus)
Assay: Agonist activity at delta opioid receptor in Kunming mouse vas deferens assessed as inhibition of electrically-stimulated muscle contraction
Please express pIC50 as -log10 of the molar concentration.

Examples with their reported pIC50 follow.
chemical-structure | numeric-result
C=C(C(N)=O)[C@@H](NC(=O)[C@H](Cc1c[nH]c2ccccc12)NC(=O)[C@@H]1CCCN1C(=O)[C@@H](N)Cc1ccc(O)cc1)c1ccc(Cl)cc1 | 7.44
C=C(C(N)=O)[C@@H](NC(=O)[C@H](Cc1c[nH]c2ccccc12)NC(=O)[C@@H]1CCCN1C(=O)[C@@H](N)Cc1ccc(O)cc1)c1ccc2ccccc2c1 | 6.85

Ask: Using the record for `C=C(C(N)=O)[C@@H](NC(=O)[C@H](Cc1c[nH]c2ccccc12)NC(=O)[C@@H]1CCCN1C(=O)[C@@H](N)Cc1ccc(O)cc1)c1cccc2ccccc12` , report its pIC50.
Reply: 7.07

Ask: Look at this compound and give its reported pIC50. `C=C(C(N)=O)[C@@H](NC(=O)[C@H](Cc1c[nH]c2ccccc12)NC(=O)[C@@H]1CCCN1C(=O)[C@@H](N)Cc1ccc(O)cc1)c1ccccc1Cl`
Reply: 6.44

Ask: Please report the recorded pIC50 for `C=C(C(N)=O)[C@@H](NC(=O)[C@H](Cc1c[nH]c2ccccc12)NC(=O)[C@@H]1CCCN1C(=O)[C@@H](N)Cc1ccc(O)cc1)c1ccccc1` .
Reply: 8.12

Ask: Value lookup for pIC50; key = `C=C(C(N)=O)[C@@H](NC(=O)[C@H](Cc1c[nH]c2ccccc12)NC(=O)[C@@H]1CCCN1C(=O)[C@@H](N)Cc1ccc(O)cc1)c1cccc(Cl)c1`
Reply: 7.16

Ask: Reported pIC50 for `C=C(C(N)=O)[C@@H](NC(=O)[C@H](Cc1c[nH]c2ccccc12)NC(=O)[C@@H]1CCCN1C(=O)[C@@H](N)Cc1ccc(O)cc1)c1ccoc1` : what is it?
Reply: 7.99

* * *

Test system: Mus musculus
Test: Antinociceptive activity in icv dosed Kunming mouse assessed as inhibition of heat-induced tail flick after 5 to 60 mins
Format: functional
Conditions: central
measured-quantity: ED50
The answer consists of two parts: a number and, after it, its unit.

chemical-structure | ED50
C=C(C(N)=O)[C@@H](NC(=O)[C@H](Cc1c[nH]c2ccccc12)NC(=O)[C@@H]1CCCN1C(=O)[C@@H](N)Cc1ccc(O)cc1)c1ccoc1 | 0.00155 µmol/kg
C=C(C(N)=O)[C@@H](NC(=O)[C@H](Cc1c[nH]c2ccccc12)NC(=O)[C@@H]1CCCN1C(=O)[C@@H](N)Cc1ccc(O)cc1)c1ccccc1 | 0.00233 µmol/kg
C=C(C(N)=O)[C@@H](NC(=O)[C@H](Cc1c[nH]c2ccccc12)NC(=O)[C@@H]1CCCN1C(=O)[C@@H](N)Cc1ccc(O)cc1)c1ccco1 | 0.00142 µmol/kg

Attention now turns to another entry.
Ask: So what's the measured ED50 for this one? `C=C(C(N)=O)[C@@H](NC(=O)[C@H](Cc1c[nH]c2ccccc12)NC(=O)[C@@H]1CCCN1C(=O)[C@@H](N)Cc1ccc(O)cc1)c1cccc(Cl)c1`
Reply: 0.00928 µmol/kg

* * *

Target: Delta-type opioid receptor (Mus musculus, UniProt P32300)
Sequence (P32300 whole entry): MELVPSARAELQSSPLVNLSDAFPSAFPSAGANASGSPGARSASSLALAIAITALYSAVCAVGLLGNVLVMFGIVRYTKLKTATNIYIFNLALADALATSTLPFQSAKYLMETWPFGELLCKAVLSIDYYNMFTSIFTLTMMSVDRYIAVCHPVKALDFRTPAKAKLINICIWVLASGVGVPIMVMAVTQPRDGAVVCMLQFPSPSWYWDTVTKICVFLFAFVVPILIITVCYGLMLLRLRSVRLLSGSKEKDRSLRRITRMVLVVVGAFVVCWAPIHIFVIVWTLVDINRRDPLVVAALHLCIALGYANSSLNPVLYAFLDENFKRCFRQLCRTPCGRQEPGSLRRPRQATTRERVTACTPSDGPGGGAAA
Assay: Agonist activity at delta opioid receptor in Kunming mouse vas deferens assessed as inhibition of electrically-stimulated muscle contraction
measured-quantity: pIC50
Scale: pIC50 equals -log10([C]), with [C] in mol/L.

Example cases with answers are listed next.
chemical-structure | system-under-test | numeric-result
C=C(C(N)=O)[C@@H](NC(=O)[C@H](Cc1c[nH]c2ccccc12)NC(=O)[C@@H]1CCCN1C(=O)[C@@H](N)Cc1ccc(O)cc1)c1ccc(F)cc1 | Delta-type opioid receptor (Mus musculus, UniProt P32300) | 6.89
C=C(C(N)=O)[C@@H](NC(=O)[C@H](Cc1c[nH]c2ccccc12)NC(=O)[C@@H]1CCCN1C(=O)[C@@H](N)Cc1ccc(O)cc1)c1ccc2c(c1)OCO2 | Delta-type opioid receptor (Mus musculus, UniProt P32300) | 6.36
C=C(C(N)=O)[C@@H](NC(=O)[C@H](Cc1c[nH]c2ccccc12)NC(=O)[C@@H]1CCCN1C(=O)[C@@H](N)Cc1ccc(O)cc1)c1ccco1 | Delta-type opioid receptor (Mus musculus, UniProt P32300) | 7.80
C=C(C(N)=O)[C@@H](NC(=O)C(=C)[C@@H](NC(=O)[C@@H]1CCCN1C(=O)[C@@H](N)Cc1ccc(O)cc1)c1ccccc1)c1ccccc1 | Delta-type opioid receptor (Mus musculus, UniProt P32300) | 6.78

Ask: For the compound `C=C(C(N)=O)[C@@H](NC(=O)[C@H](Cc1c[nH]c2ccccc12)NC(=O)[C@@H]1CCCN1C(=O)[C@@H](N)Cc1ccc(O)cc1)c1ccc(OC)cc1` , what pIC50 is on record?
Reply: 6.52
